Test: Plasma concentration in nude mouse at 100 mg/kg, po measured at 1 hr
Format: ADME, organism-based
Set-up: dose 100 mg/kg, route oral
measurement.label: concentration at 1 h (µM)

smiles.input	recorded.number
CN(c1ccnc(Nc2cc(N3CCOCC3)cc(N3CCOCC3)c2)n1)c1cccc2[nH]ncc12	11

* * *

Assay: AUC (0 to 24 hrs) in nude mouse at 100 mg/kg, po
Assay type: ADME, organism-based
Parameters: time < 24 hr, dose 100 mg/kg, route oral
Conditions: plasma
measurement.label: AUC(0-t) at 24 h

smiles.input	result
CN(c1ccnc(Nc2cc(N3CCOCC3)cc(N3CCOCC3)c2)n1)c1cccc2[nH]ncc12	48.7 µM·h

* * *

Experiment: Plasma concentration in nude mouse at 100 mg/kg, po measured at 4 hrs
Type: ADME, organism-based
Design: dose 100 mg/kg, route oral

smiles.input	concentration at 4 h [nM]
CN(c1ccnc(Nc2cc(N3CCOCC3)cc(N3CCOCC3)c2)n1)c1cccc2[nH]ncc12	1900

* * *

Test: Plasma concentration in nude mouse at 100 mg/kg, po measured at 24 hrs
Assay type: ADME, organism-based
Design: dose 100 mg/kg, route oral

smiles.input	concentration at 24 h
CN(c1ccnc(Nc2cc(N3CCOCC3)cc(N3CCOCC3)c2)n1)c1cccc2[nH]ncc12	1800 nM

From: ChEMBL document CHEMBL1268821
